A collection of molecules and their measured normalized growth
- method notes: chemical genetic growth profiling, strain panel (AID 1159580);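 note: tested at 20 µM; growth read once vehicle control cultures reached saturation at 30 °C; 1 = growth at the plate median or of vehicle wells; lower values mean less growth of the strain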
- condition label: S. cerevisiae deletion strains, growth OD, locus YGR135W, strain pre9, active compounds read low
In all, about 5,500 compounds went through this assay and about 2,000 (36%) were called active. About 18% were inconclusive and are not listed. The list shows a part of the results.
measured quantity: normalized growth

| molecule | quantitative readout |
| --- | --- |
| COC(=O)C[C@H]1C2(C)CC34OC5(C)O[C@@]6([C@H](OC)C(OC(=O)C(C)C)[C@]7(C)C(/C(=C(/OC)C(C)C)C(=O)O[C@H]7c7ccoc7)[C@@]6(O5)[C@H](OC)[C@@]3(OC)C2OC(C)=O)[C@]14C (some centres not stated) | 1.02 |
| CC1COc2c(N3CCN(C)CC3)c(F)cc3c(=O)c(C(=O)O)cn1c23 (configuration not stated) | 1.01 |
| COc1ccc(OC)c(C(O)CNC(=O)CN)c1 (configuration not stated) | 0.999 |
| CCC(C)C(=O)OC1CC2(C)C(c3ccoc3)OC(=O)CC23OC2(C)OC34C(OC(=O)C(C)C)C3(O)C(OC(=O)C5(C)OC5C)C5(C)CC3(O)C(C)(C5C(=O)OC)C14O2 (configuration not stated) | 1.03 |
| COC(=O)CC1C2(C)CC34OC5(C)OC6(C7/C(=C(/O)C(C)C)C(=O)OC(c8ccoc8)C7(C)C(OC(=O)C(C)C)C(OC)C6(O5)C13C)C(OC)C4(OC)C2OC(C)=O (configuration not stated) | 0.987 |
| CC(C)NCC(O)COc1cccc2[nH]ccc12 (configuration not stated) | 0.989 |
| O=C(O)/C=C/c1ccc(O)c(O)c1 | 1.01 |
| CCCCNC(=O)NS(=O)(=O)c1ccc(C)cc1 | 0.986 |
| CN1CC(=O)N=C1N | 1 |
| NCCC(O)C(=O)NC1CC(N)C(OC2OC(CN)C(O)C(O)C2N)C(OC2OC(CO)C(O)C2O)C1O (configuration not stated) | 1.02 |
| CCn1cc(C(=O)O)c(=O)c2cc(F)c(N3CCNC(C)C3)c(F)c21 (configuration not stated) | 0.953 |
| O=C(OCC(O)CO)c1ccccc1Nc1ccnc2cc(Cl)ccc12 (configuration not stated) | 0.974 |
| c1ccc2c(c1)sc1ccccc12 | 0.929 |
| CC1CCc2cc(F)cc3c(=O)c(C(=O)O)cn1c23 (configuration not stated) | 0.974 |
| CCN(CC)Cc1ccc(Nc2ccnc3cc(Cl)ccc23)cc1O | 0.994 |
| CCC(C)C(=O)O[C@@H]1C[C@@]2(C)[C@H](c3ccoc3)OC(=O)CC23OC2(C)OC34[C@H](OC(=O)C(C)C)[C@@]3(O)[C@@H](OC(=O)C5(C)OC5C)[C@@]5(C)C[C@]3(O)[C@@](C)([C@H]5CC(=O)OC)C14O2 (some centres not stated) | 1.06 |
| NC(=O)c1ccc[n+]([C@@H]2O[C@H](COP(=O)([O-])OP(=O)(O)OC[C@H]3O[C@@H](n4cnc5c(N)ncnc54)[C@H](OP(=O)(O)O)[C@@H]3O)[C@@H](O)[C@H]2O)c1 | 1.02 |

###

- method notes: chemical genetic growth profiling, strain panel (AID 1159580);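 note: tested at 20 µM; growth read once vehicle control cultures reached saturation at 30 °C; 1 = growth at the plate median or of vehicle wells; lower values mean less growth of the strain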
- condition label: S. cerevisiae deletion strains, growth OD, locus YLR058C, strain SHM2 (second series), active compounds read low
The whole screen tested about 5,500 compounds, of which about 2,000 (36%) were called active. Another 18% or so got no clear call; they are omitted. This is one part of the list.
normalized growth overview
measured quantity: normalized growth

| structure | quantitative readout |
| --- | --- |
| Cc1cc(=O)n2[nH]cnc2n1 | 0.996 |
| O=C(O)c1cncc(C#Cc2ccccc2)c1 | 0.949 |
| CN(C)C=Nc1ncccc1OCc1ccc(Cl)c(Cl)c1 | 1 |
| c1ccc(OCCOc2ccccn2)nc1 | 0.996 |
| Cc1nc(N)ncc1Sc1ccccc1 | 0.987 |
| COC(=O)c1ccc(Cl)cc1NS(=O)(=O)c1ccc(OC)c(OC)c1 | 1.01 |
| O=[N+]([O-])c1ccc(OCCO)c([N+](=O)[O-])c1 | 0.998 |
